# credit: paper PMC10786891

Target Or System: T1, EsCas13d, nuclease-dead (Eubacterium siraeum, UniProt B0MS50, R295A;H300A;R849A;H854A)
T1 sequence: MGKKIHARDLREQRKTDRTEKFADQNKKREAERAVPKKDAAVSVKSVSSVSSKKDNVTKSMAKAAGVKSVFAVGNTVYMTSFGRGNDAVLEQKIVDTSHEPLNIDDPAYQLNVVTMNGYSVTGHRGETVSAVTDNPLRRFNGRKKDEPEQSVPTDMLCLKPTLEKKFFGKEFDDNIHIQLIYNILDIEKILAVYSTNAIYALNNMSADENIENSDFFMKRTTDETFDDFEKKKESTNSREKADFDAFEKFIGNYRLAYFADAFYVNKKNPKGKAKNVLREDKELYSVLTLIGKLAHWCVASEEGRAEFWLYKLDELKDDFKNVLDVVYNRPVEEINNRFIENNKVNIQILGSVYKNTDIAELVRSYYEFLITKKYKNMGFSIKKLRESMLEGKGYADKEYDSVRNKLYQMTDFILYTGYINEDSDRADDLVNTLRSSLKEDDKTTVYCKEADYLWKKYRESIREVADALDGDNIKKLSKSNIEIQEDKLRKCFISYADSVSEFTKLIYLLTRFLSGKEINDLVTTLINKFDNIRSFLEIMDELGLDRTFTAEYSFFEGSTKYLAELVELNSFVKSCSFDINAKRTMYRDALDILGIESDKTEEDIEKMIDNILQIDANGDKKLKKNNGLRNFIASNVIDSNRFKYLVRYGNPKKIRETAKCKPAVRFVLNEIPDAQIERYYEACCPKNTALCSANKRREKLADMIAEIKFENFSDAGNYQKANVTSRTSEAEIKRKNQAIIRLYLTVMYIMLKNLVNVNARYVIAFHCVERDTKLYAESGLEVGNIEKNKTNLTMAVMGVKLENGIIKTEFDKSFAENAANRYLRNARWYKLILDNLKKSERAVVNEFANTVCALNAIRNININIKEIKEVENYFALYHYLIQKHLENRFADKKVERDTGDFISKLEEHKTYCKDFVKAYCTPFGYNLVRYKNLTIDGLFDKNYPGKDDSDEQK
Test Details: crRNA (strand 1, pre-loaded); Mg2+; 40 mM Tris-HCl pH 7.5, 150 mM NaCl, 6 mM MgCl2, 1 mM DTT, 0.1% Tween-20, 0.2 mg/ml BSA; 25 C; 10 min per concentration, then washed
Applied Conditions: tags: His6-TwinStrep-SUMO cleaved; N-terminal SNAP kept (SNAP-Surface 488); label: 3' end held by stalled T7 RNA polymerase

>  <Binder>
target 2 MT 5'PFS UUU 3'PFS ACG (mixed) RNA 1: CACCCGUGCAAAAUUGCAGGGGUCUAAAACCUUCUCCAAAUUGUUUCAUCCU RNA 2: GGGAAUGGAUCCACAUCUACGAAUUCUUUAGGAUGAAACAAUUUGGAGAAGACGAGAUCGGAAGAGCACACGU

>  <Unit Spec>
nM

>  <Kd>
10.6

$$$$
>  <Binder>
target 1 C7G,C22A (mixed) RNA 1: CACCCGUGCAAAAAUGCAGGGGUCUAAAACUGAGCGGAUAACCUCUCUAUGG RNA 2: GGGAAUGGAUCCACAUCUACGAAUUCGUAACAUAGAGAGGUUAUGCGCUCACCGAGAUCGGAAGAGCACACGU

>  <Unit Spec>
nM

>  <Kd>
14.2

$$$$
>  <Binder>
target 3 A11C,A18G (mixed) RNA 1: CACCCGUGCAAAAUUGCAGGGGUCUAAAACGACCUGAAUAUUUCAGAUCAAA RNA 2: GGGAAUGGAUCCACAUCUACGAAUUCGUUUUUGGUCUGAACUAUUCAGGUCUGCAGAUCGGAAGAGCACACGU

>  <Unit Spec>
nM

>  <Kd>
73

$$$$
>  <Binder>
target 1 G12A,G15A (mixed) RNA 1: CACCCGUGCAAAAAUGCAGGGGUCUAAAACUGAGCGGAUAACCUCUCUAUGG RNA 2: GGGAAUGGAUCCACAUCUACGAAUUCGUACCAUAGAAAGAUUAUCCGCUCACCGAGAUCGGAAGAGCACACGU

>  <Unit Spec>
nM

>  <Kd>
20

$$$$
>  <Binder>
target 2 MT 5'PFS GCC 3'PFS ACU (mixed) RNA 1: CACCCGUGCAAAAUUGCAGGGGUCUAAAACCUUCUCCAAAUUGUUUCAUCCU RNA 2: GGGAAUGGAUCCACAUCUACGAAUUCGCCAGGAUGAAACAAUUUGGAGAAGACUAGAUCGGAAGAGCACACGU

>  <Unit Spec>
nM

>  <Kd>
12.9

$$$$
>  <Binder>
target 1 MT 5'PFS GUC 3'PFS UGG (mixed) RNA 1: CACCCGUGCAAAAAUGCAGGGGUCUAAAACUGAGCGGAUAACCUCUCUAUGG RNA 2: GGGAAUGGAUCCACAUCUACGAAUUCGUCCCAUAGAGAGGUUAUCCGCUCAUGGAGAUCGGAAGAGCACACGU

>  <Unit Spec>
nM

>  <Kd>
65

$$$$
>  <Binder>
target 1 insC 3' of 17,insU 3' of 12 (mixed) RNA 1: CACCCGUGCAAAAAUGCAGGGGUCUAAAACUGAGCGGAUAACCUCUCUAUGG RNA 2: GGGAAUGGAUCCACAUCUACGAAUUCGUACCAUAGCAGAGGUUUAUCCGCUCACCGAGAUCGGAAGAGCACACGU

>  <Unit Spec>
nM

>  <Kd>
42

$$$$
>  <Binder>
target 2 MT 5'PFS GGC 3'PFS UAC (mixed) RNA 1: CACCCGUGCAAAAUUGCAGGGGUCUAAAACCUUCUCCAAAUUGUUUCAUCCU RNA 2: GGGAAUGGAUCCACAUCUACGAAUUCGGCAGGAUGAAACAAUUUGGAGAAGUACAGAUCGGAAGAGCACACGU

>  <Unit Spec>
nM

>  <Kd>
18.9

$$$$
